assay: Induction of apoptosis in human CRT-MG cells assessed as cell death at 10 uM after 24 hrs by LDH release assay; format: functional
quantity_name: Activity (%)
Provide only the numeric value, understood in %.

Recorded Activity, per entry:
>>> df
                            compound_string  quantity_name  readout_value
0  CCN(CC)c1ccc(/C=C/C(=O)c2cccc(N=[N+]=[N-])c2)cc1       Activity           27.8
1  CCN(CC)c1ccc(/C=C/C(=O)c2cccc(-n3cc(-c4ccccc4)nn3)c2)cc1       Activity           14.3

[ask] If you can, please state the reported Activity value of `CCN(CC)c1ccc(/C=C/C(=O)c2cccc(-n3cc(C(C)(C)O)nn3)c2)cc1` .
[reply] 13.3

###

Each entry below carries its reported Activity.
assay: Induction of apoptosis in human CRT-MG cells assessed as cell death at 10 uM after 24 hrs by LDH release assay; format: functional

The cases that follow already have their Activity on record.
>>> df
                            compound_string  readout_value
0  CCN(CC)c1ccc(/C=C/C(=O)c2cccc(-n3cc(-c4cc(F)cc(F)c4)nn3)c2)cc1           <20%
1  CCN(CC)c1ccc(/C=C/C(=O)c2cccc(-n3cc(-c4ccc(C)cc4)nn3)c2)cc1           <20%

Consider now this further molecule.
[ask] Fill in: Activity of `CCN(CC)c1ccc(/C=C/C(=O)c2cccc(-n3cc(-c4ccccc4C(F)(F)F)nn3)c2)cc1` is ___
[reply] <20%

The reported measurements were obtained from ChEMBL document CHEMBL3351440.
